Entry source: patent US8653087B2

# TESTED SYSTEM: B-Raf (V600E)-kinase (Homo sapiens (Human), UniProt P15056, V600E)
# Sequence (P15056 whole entry V600E): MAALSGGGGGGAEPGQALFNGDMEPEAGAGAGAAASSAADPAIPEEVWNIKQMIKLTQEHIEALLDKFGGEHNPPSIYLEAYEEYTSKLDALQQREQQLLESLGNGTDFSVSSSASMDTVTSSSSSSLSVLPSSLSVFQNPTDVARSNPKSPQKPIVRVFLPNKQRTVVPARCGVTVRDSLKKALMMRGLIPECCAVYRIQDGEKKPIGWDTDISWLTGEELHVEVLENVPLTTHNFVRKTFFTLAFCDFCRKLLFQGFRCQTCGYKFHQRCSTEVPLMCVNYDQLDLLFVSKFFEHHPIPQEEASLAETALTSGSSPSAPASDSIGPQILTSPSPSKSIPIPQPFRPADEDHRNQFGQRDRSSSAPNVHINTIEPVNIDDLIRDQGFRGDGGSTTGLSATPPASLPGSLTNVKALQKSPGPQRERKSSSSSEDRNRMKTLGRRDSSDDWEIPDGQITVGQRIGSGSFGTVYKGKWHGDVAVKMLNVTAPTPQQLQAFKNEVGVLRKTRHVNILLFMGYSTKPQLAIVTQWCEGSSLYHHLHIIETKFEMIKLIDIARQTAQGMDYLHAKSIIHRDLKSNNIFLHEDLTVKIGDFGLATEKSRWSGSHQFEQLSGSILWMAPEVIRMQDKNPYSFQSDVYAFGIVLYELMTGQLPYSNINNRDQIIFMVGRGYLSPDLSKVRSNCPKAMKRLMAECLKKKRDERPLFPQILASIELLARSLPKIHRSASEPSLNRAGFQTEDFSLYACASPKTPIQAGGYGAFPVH
# ASSAY SUMMARY: Kinase test B-RAF (V600E)
# Type: biochemical
# SETUP CONDITIONS: B-RAF (V600E) kinase test, 250 μM ATP
pIC50: −log10 of the molar value.
VALUE TYPE: pIC50

Here's what some known entries look like.
# COMPOUND, OBSERVED RESULT
data = [
    ("Cc1ccc(C(=O)Nc2cc(OCCN(C)C)cc(C(F)(F)F)c2)cc1Nc1ncnc2cnc(N(C)C)nc12 [III-155]", 8.70),
    ("Cc1ccc(C(=O)Nc2cc(C(C)(C)C)on2)cc1Nc1ncnc2cnc(N3C[C@H]4C[C@@H]3CN4C)nc12 [III-497]", 8.70),
    ("CC(C)(C)c1cc(NC(=O)c2ccc(Cl)c(Nc3ncnc4cnc(NCCN5CCOCC5)nc34)c2)no1 [III-78]", 8.70),
    ("Cc1ccc(C(=O)Nc2cccc(C(F)(F)F)c2)cc1Nc1ncnc2cnc(N3CCCCC3)nc12 [III-330]", 8.22),
    ("Cc1cn(-c2cc(NC(=O)c3ccc(C)c(Nc4ncnc5cnc(N6CCC(F)(F)C6)nc45)c3)cc(C(F)(F)F)c2)cn1 [III-450]", 8.52),
]

(a) COc1ccc(NC(=O)c2ccc(Cl)c(Nc3ncnc4cnc(N5CCCC5)nc34)c2)cc1C(F)(F)F [III-13]
(b) Cc1ccc(C(=O)Nc2cccc(N(C)C)c2)cc1Nc1ncnc2cnc(N3CCNCC3)nc12 [III-263]
Input line: Returns: the argument ( a or b ) having the larger pIC50. Lab note: record the label of whichever item you select.
Output line: a
(a: 8.05, b: 7.82)

(I) Cc1ccc(C(=O)Nc2cccc(C(F)(F)F)c2)cc1Nc1ncnc2cnc(N(C)CCN(C)C)nc12 [III-232]
(II) Cc1ccc(C(=O)NCc2cccc(C(F)(F)F)c2)cc1Nc1ncnc2cnc(N3CCCCC3)nc12 [III-214]
Input line: Looking at recorded values for pIC50, does I or II come in lower? Lab note: record the label of whichever item you select.
Output line: II
(II: 7.25, I: 8.40)

(a) Cc1ccc(C(=O)NCc2ccc(C(F)(F)F)cc2)cc1Nc1ncnc2cnc(N(C)CCN(C)C)nc12 [III-236]
(b) Cc1ccc(C(=O)Nc2nnc(C(F)(F)F)s2)cc1Nc1ncnc2cnc(N3CCCC3)nc12 [III-264]
(c) Cc1ccc(C(=O)Nc2cc(C(C)(C)C)on2)cc1N(C)c1ncnc2cnc(N3CCOCC3)nc12 [III-580]
(d) Cc1ccc(C(=O)Nc2cc(N(C)CCN(C)C)cc(C(F)(F)F)c2)cc1Nc1ncnc2c(N)nc(N3CCOCC3)nc12 [I-76]
Input line: Arrange these compounds by their pIC50, starting with the largest number. Your answer should be the labels, listed in the requested order.
Output line: d, c, a, b

(I) CCN1CCN(c2ncc3ncnc(Nc4cc(C(=O)Nc5cc(C(C)(C)C)on5)ccc4F)c3n2)CC1 [III-398]
(II) COc1ccc(C(=O)Nc2cc(C(C)(C)C)on2)cc1Nc1ncnc2cnc(N3CCOCC3)nc12 [III-81]
Input line: In terms of reported pIC50, does I or II have the smaller number? Indicate which entry you chose by stating its label.
Output line: II
